Test system: RET
Conditions: concentration: 1 μM, replicates: in singlicate; n = 1;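 further: KINOMEscan kinase panel screen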
Parameter threshold = 30%. Response is rule met when %Inh meets or exceeds it, else rule not met.

Some entries whose results are on file:
COc1ccc(Nc2nccc(N3CCC(NC(=O)Nc4cccc(C(C)=O)c4)C3)n2)cc1 (centres unmarked) [GSK1379731] = rule not met
Cn1cc(-c2ccc3c(c2)CCN3C(=O)Cc2ccccc2Cl)c2c(N)ncnc21 [GSK2608885] = rule met
O=C(Nc1cccc(-c2nn3ncccc3c2-c2ccnc(Nc3cccc(C(F)(F)F)c3)n2)c1)c1c(F)cccc1F [GSK299495] = rule met
COc1ccc(COc2cc(-n3cnc4ccccc43)sc2C(N)=O)cc1 [GSK1024304] = rule not met
Cc1c2ccc(N(C)c3ccnc(Nc4cccc(S(N)(=O)=O)c4)n3)cc2nn1Cc1ccccc1.Cl.Cl [GW787226] = rule met

Item CC(C)Oc1ccc2c(-c3ccnc(Nc4ccc(N5CCN(C)CC5)cc4)n3)cnn2n1 [GW696155] with %Inh of 30% or above?
rule met

Exam item: decide whether the reported %Inh for `Cn1ccc2ncnc(Oc3ccc(NC(=O)Nc4ccncc4)c(Cl)c3)c21` is at least 30%.
rule not met

Determine whether this compound has %Inh no lower than 30%: COc1cc(Nc2nccc(N3CCC(NC(=O)c4cccc(NC(C)=O)c4)C3)n2)cc(OC)c1OC (centres unmarked) [GSK1379754]
rule not met

---

Test system: ERK3
Construct: gene MAPK6
Conditions: concentration: 1 μM, replicates: in singlicate; n = 1
EXPERIMENTAL READOUT: %Inh (%)
Hi! Could you send only the number? It should be in %, unit omitted.

Answered cases to consult:
NS(=O)(=O)CCc1cccc(Nc2nccc(-c3c(-c4cccc(NC(=O)c5c(F)cccc5F)c4)nn4ccccc34)n2)c1 = 0
COc1cc2ncn(-c3cc(OCc4sccc4Cl)c(C(N)=O)s3)c2cc1OC = 8
Cc1cccc(-c2nc(-c3ccc(S(C)(=O)=O)cc3)sc2-c2ccncc2)c1 = 6
CSc1ccc(-c2cc3ncnc(SCC(=O)O)c3s2)cc1 = 0

For the compound NCC(NC(=O)c1cc(-c2cn[nH]c2)c(-c2ccnc3[nH]ccc23)s1)c1ccccc1.O=C(O)C(F)(F)F.O=C(O)C(F)(F)F (centres unmarked) , give its reported %Inh.
20

Check the records and state %Inh for `O=C(NCCNc1ccnc(Nc2ccc(F)cc2)n1)Nc1ccccc1F`
0

Tell me %Inh reported for `Cl.Oc1cccc(Nc2ccnc3cc(-c4ccncc4)ccc23)c1`
2

Provide only the value of recorded %Inh for Cc1nnc(-c2ccc3occ(-c4ccc(C(C)O)cc4)c3c2)o1 (centres unmarked)
15

---

Listing of recorded %Inh by entry.
Tested on: MAP4K3
Details: concentration: 1 μM, replicates: in singlicate; n = 1
# output: numeric value plus its unit

Fc1ccc(-c2ncn(CCCN3CCOCC3)c2-c2ccccn2)cc1 [SB-211742] = 0%

Read the entry O=C(Nc1cccc(-c2nn3ncccc3c2-c2ccnc(Nc3cccc(C(F)(F)F)c3)n2)c1)c1c(F)cccc1F [GSK299495] and write its reported %Inh.
0%

Return %Inh for the following compound: `O=C1Cc2cc(Nc3nc(NCc4cccc(S(=O)(=O)C(F)(F)F)c4)ncc3C(F)(F)F)ccc2N1`
13%

Quick one: give measured %Inh for [2H]C([2H])(c1cccc(C(F)(F)F)c1C)n1ccn2c(=O)nc(N3CCOCC3)cc12 [GSK2336394]
0%
